system-name: Replicative DNA helicase DnaB (Mycobacterium tuberculosis)
Sequence (P9WMR3 whole entry): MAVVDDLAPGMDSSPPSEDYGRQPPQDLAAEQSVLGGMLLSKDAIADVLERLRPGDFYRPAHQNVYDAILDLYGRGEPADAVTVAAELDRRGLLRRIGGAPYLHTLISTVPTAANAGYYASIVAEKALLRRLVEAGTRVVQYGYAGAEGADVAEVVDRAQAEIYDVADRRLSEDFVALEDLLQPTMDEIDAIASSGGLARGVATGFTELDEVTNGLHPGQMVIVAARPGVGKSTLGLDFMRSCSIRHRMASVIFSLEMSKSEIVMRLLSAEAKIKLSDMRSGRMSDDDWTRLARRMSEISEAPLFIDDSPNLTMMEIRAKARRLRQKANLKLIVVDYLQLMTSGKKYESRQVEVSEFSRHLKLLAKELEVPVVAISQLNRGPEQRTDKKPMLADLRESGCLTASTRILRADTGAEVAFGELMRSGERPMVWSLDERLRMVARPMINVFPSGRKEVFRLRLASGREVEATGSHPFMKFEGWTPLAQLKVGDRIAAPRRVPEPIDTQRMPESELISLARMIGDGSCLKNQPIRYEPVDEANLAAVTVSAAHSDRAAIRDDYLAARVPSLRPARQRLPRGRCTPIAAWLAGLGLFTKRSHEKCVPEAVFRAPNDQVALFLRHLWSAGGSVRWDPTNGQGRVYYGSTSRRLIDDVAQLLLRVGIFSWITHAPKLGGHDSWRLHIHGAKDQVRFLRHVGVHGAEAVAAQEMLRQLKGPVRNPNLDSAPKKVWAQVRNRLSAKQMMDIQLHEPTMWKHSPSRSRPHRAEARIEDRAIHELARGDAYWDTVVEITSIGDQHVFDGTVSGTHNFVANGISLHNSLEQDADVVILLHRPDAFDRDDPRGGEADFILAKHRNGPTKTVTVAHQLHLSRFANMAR
test: DnaB intein splicing inhibitors, dose response, biochemical, cell-free fluorescence (AID 449749)
Assay type: functional
The source made the active and inactive calls. Rule as the data show it: actives have a measured AC50 and inactives only a lower limit.
Possible outcomes: label 1 = active, label 0 = inactive

- CCOC(=O)c1cc(C)sc1NC(=O)CSC1=NCCS1: label 1
- CC(C)(C)c1cc[n+](C2=C([N-]S(=O)(=O)c3ccccc3)C(=O)c3ccccc3C2=O)cc1: label 1
- O=C1Cc2ccccc2C(=O)N1CCc1ccccc1: label 1
- CC(C)c1ccc(/C=N/NC(=O)c2nnn(-c3nonc3N)c2CSC2=NCCS2)cc1: label 1
- CN(C)CCSc1n[nH]c2nc3ccccc3c-2n1: label 1
- COc1ccc(-c2cc(C(=O)n3cnc4ccccc43)c3ccccc3n2)cc1: label 0
